# assayed_target: AKT2 (Homo sapiens, UniProt P31751)
# Construct: expressed in transfected cells; host or cells: HEK293
# Sequence (P31751 whole entry): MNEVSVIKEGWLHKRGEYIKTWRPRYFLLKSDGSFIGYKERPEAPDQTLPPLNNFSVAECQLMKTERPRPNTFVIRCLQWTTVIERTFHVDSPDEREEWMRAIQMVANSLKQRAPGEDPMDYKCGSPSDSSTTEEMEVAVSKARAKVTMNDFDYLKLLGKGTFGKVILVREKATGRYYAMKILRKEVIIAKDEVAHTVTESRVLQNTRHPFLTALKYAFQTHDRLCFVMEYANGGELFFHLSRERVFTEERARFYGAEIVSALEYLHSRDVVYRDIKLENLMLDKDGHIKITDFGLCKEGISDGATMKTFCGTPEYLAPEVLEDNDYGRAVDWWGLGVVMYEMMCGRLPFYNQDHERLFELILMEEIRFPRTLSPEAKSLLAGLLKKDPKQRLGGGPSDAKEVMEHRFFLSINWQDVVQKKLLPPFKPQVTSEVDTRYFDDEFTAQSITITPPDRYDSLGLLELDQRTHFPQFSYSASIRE
# assay: Live cell AKT2 target engagement by NanoBRET competitive probe displacement in HEK293 cells
# Format: binding
# condition_set: NanoBRET competitive probe displacement, live HEK293 cells, 2 h at 37° C.; read-out: AKT2 IC50
# Description: Determining live cell AKT1 E17K, AKT1 WT, and AKT2 target engagement by NanoBRET competitive probe displacement. […] Briefly, HEK293 cells were transfected with plasmids encoding kinase-NanoLuciferase fusion proteins overnight. […] After incubation for 2 h at 37° C., luciferase substrate and extracellular luciferase inhibitor were added to all wells, and luminescent intensity at 460 nm and 600 nm were measured on a multimode plate-reader. […]
List of IC50 values.
property: IC50 (nM)

compound="Cc1ccc(C(=O)N[C@H]2CCc3cc(-n4c(-c5ccccc5)nc5ccc(-c6ccn(C7CC7)n6)nc54)ccc32)cn1 [Compound 431]" property=IC50 unit_string=nM recorded_value=900
compound="Cc1cnc2ccc(C(=O)N[C@H]3CCc4cc(-n5c(-c6cccnc6N)nc6ccc(-n7nccn7)nc65)ccc43)cn12 [Compound 398]" property=IC50 unit_string=nM recorded_value=1090
compound="CC(C)(O)c1ccn(-c2ccc3nc(-c4cccnc4N)n(-c4ccc5c(c4)CC[C@@H]5NC4CCN(C(=O)C5CC5)CC4)c3n2)n1 [Compound 569]" property=IC50 unit_string=nM recorded_value=808
compound="COc1cnn(-c2ccc3nc(-c4cccnc4N)n(-c4ccc5c(c4)CC[C@@H]5NC4CCN(C(=O)C5CC5)CC4)c3n2)c1 [Compound 485]" property=IC50 unit_string=nM recorded_value=997
compound="Nc1ncccc1-c1nc2ccc(-n3cccn3)nc2n1-c1ccc2c(c1)CC[C@@H]2NC1CCc2cnccc2C1 (single isomer, unassigned) [Compound 463]" property=IC50 unit_string=nM recorded_value=1080
compound="Nc1ncccc1-c1nc2ccc(-n3cccn3)nc2n1-c1ccc2c(c1)CC[C@@H]2NC1CCc2nc(C(F)F)sc21 (stereo partly shown) [Compound 601]" property=IC50 unit_string=nM recorded_value=2500
compound="Nc1ncccc1-c1nc2ccc(-n3cccn3)nc2n1-c1ccc2c(c1)CC[C@@H]2NC1Cc2cccnc2C1 (stereo partly shown) [Compound 531]" property=IC50 unit_string=nM recorded_value=1280
compound="Nc1ncccc1-c1nc2ccc(-n3cccn3)nc2n1-c1ccc2c(c1)CC[C@@H]2NC1CCc2nc(C(F)F)sc21 (stereo partly shown) [Compound 600]" property=IC50 unit_string=nM recorded_value=7070
compound="Nc1ncccc1-c1nc2ccc(-n3ccc(N4CC5CC(C4)O5)n3)nc2n1-c1ccc2c(c1)CC(F)[C@@H]2NC1CCN(C(=O)C2CC2)CC1 (stereo partly shown) [Compound 552]" property=IC50 unit_string=nM recorded_value=166
compound="CN(C)C(=O)N1CCC(N[C@H]2CCc3cc(-n4c(-c5cccnc5N)nc5ccc(-n6cccn6)nc54)ccc32)CC1 [Compound 394]" property=IC50 unit_string=nM recorded_value=1480
compound="Nc1ncccc1-c1nc2ccc(-n3cccn3)nc2n1-c1ccc2c(c1)CC[C@@H]2NC1CCCc2ccncc21 (stereo partly shown) [Compound 501]" property=IC50 unit_string=nM recorded_value=695
compound="COc1ncn(-c2ccc3nc(-c4cccnc4N)n(-c4ccc5c(c4)CC[C@@H]5NC(=O)c4ccc(C)nc4)c3n2)n1 [Compound 456]" property=IC50 unit_string=nM recorded_value=715
compound="Nc1ncccc1-c1nc2ccc(-n3cccn3)nc2n1-c1ccc2c(c1)CC[C@@H]2NC1CN(c2ccccn2)C1 [Compound 439]" property=IC50 unit_string=nM recorded_value=794

* * *

Documented pIC50 across a set of compounds
# assayed_target: AKT2 (Homo sapiens, UniProt P31751)
# Construct: expressed in transfected cells; host or cells: HEK293
# assay: Live cell AKT2 target engagement by NanoBRET competitive probe displacement in HEK293 cells
# Type: binding
# condition_set: NanoBRET live cell target engagement, HEK293 cells, 2 h at 37° C.; read-out: AKT2 IC50
pIC50: −log10 of the molar value.
property: pIC50

smiles_text=Nc1ncccc1-c1nc2ccc(-c3ccn(C(F)F)n3)nc2n1-c1ccc2c(c1)CC[C@@H]2n1ccnn1 assayed_target="AKT2 (Homo sapiens, UniProt P31751)" property=pIC50 recorded_value=6.21
smiles_text=Cn1ccc(-c2cn([C@H]3CCc4cc(-n5c(-c6cccnc6N)nc6ccc(-n7cccn7)nc65)ccc43)nn2)n1 assayed_target="AKT2 (Homo sapiens, UniProt P31751)" property=pIC50 recorded_value=7.02
smiles_text=Nc1ncccc1-c1nc2ccc(-n3cccn3)nc2n1-c1ccc2c(c1)CC[C@@H]2NC(=O)c1ccc(O)cc1 assayed_target="AKT2 (Homo sapiens, UniProt P31751)" property=pIC50 recorded_value=7.39
smiles_text=Cc1cc(C(=O)N[C@H]2CCc3cc(-n4c(-c5cccnc5N)nc5ccc(-n6cccn6)nc54)ccc32)nn1C assayed_target="AKT2 (Homo sapiens, UniProt P31751)" property=pIC50 recorded_value=6.27
smiles_text=Cc1ncc(C(=O)N[C@H]2CCc3cc(-n4c(-c5cccnc5N)nc5ccc(-n6cccn6)nc54)ccc32)c(C(F)F)n1 assayed_target="AKT2 (Homo sapiens, UniProt P31751)" property=pIC50 recorded_value=6.44
smiles_text=Nc1ncccc1-c1nc2ccc(-n3cccn3)nc2n1-c1ccc2c(c1)CC[C@@H]2NC(=O)Cc1cccnc1 assayed_target="AKT2 (Homo sapiens, UniProt P31751)" property=pIC50 recorded_value=5.55
smiles_text=COc1cc(C(=O)N[C@H]2CCc3cc(-n4c(-c5cccnc5N)nc5ccc(-n6cccn6)nc54)ccc32)cc(F)n1 assayed_target="AKT2 (Homo sapiens, UniProt P31751)" property=pIC50 recorded_value=7.71
smiles_text=COc1cc(F)cc(C(=O)N[C@H]2CCc3cc(-n4c(-c5cccnc5N)nc5ccc(-n6cccn6)nc54)ccc32)c1 assayed_target="AKT2 (Homo sapiens, UniProt P31751)" property=pIC50 recorded_value=7.67
smiles_text=Nc1ncccc1-c1nc2ccc(-n3cccn3)nc2n1-c1ccc2c(c1)CC[C@@H]2NC(=O)c1ccc2[nH]cnc2c1 assayed_target="AKT2 (Homo sapiens, UniProt P31751)" property=pIC50 recorded_value=7.17
smiles_text=Cc1ccc(CN[C@H]2CCc3cc(-n4c(-c5cccnc5N)nc5ccc(-n6cccn6)nc54)ccc32)cn1 assayed_target="AKT2 (Homo sapiens, UniProt P31751)" property=pIC50 recorded_value=6.24
smiles_text=Nc1ncccc1-c1nc2ccc(-n3cccn3)nc2n1-c1ccc2c(c1)CC[C@@H]2NC(=O)c1ccnc2c1CCC2 assayed_target="AKT2 (Homo sapiens, UniProt P31751)" property=pIC50 recorded_value=6.95
smiles_text=CN1Cc2cc(C(=O)N[C@H]3CCc4cc(-n5c(-c6cccnc6N)nc6ccc(-n7cccn7)nc65)ccc43)cnc2C1 assayed_target="AKT2 (Homo sapiens, UniProt P31751)" property=pIC50 recorded_value=7.28
smiles_text=CNS(=O)(=O)c1ccc(C(=O)N[C@H]2CCc3cc(-n4c(-c5cccnc5N)nc5ccc(-n6cccn6)nc54)ccc32)cc1 assayed_target="AKT2 (Homo sapiens, UniProt P31751)" property=pIC50 recorded_value=6.53
smiles_text=COc1ccc(C(=O)N[C@H]2CCc3cc(-n4c(-c5cccnc5N)nc5ccc(-n6nccn6)nc54)ccc32)cn1 assayed_target="AKT2 (Homo sapiens, UniProt P31751)" property=pIC50 recorded_value=5.89

* * *

# assayed_target: AKT2 (Homo sapiens)
# Construct: expressed in transfected cells; host or cells: HEK293
# assay: Live cell AKT2 target engagement by NanoBRET competitive probe displacement in HEK293 cells
# Assay type: binding
# condition_set: NanoBRET live cell target engagement, HEK293 cells, 2 h at 37° C.; read-out: AKT2 IC50
# Experimental: Determining live cell AKT1 E17K, AKT1 WT, and AKT2 target engagement by NanoBRET competitive probe displacement. […] Briefly, HEK293 cells were transfected with plasmids encoding kinase-NanoLuciferase fusion proteins overnight. […] After incubation for 2 h at 37° C., luciferase substrate and extracellular luciferase inhibitor were added to all wells, and luminescent intensity at 460 nm and 600 nm were measured on a multimode plate-reader. […]
pIC50: −log10 of the molar value.
Response key: Satisfied means pIC50 >= 6; Not satisfied means pIC50 < 6.

compound="Nc1ncccc1-c1nc2ccc(-n3cccn3)nc2n1-c1ccc2c(c1)CC[C@@H]2NC(=O)[C@@H]1CCO1 [Compound 373]" group="Not satisfied"
compound="Nc1ncccc1-c1nc2ccc(-n3cccn3)nc2n1-c1ccc2c(c1)CC[C@@H]2NC(=O)c1cccnc1F [Compound 127]" group=Satisfied
compound="Nc1ncccc1-c1nc2ccc(-n3cccn3)nc2n1-c1ccc2c(c1)CC[C@@H]2n1cnnc1-c1ccccc1 [Compound 178]" group="Not satisfied"
compound="Cc1cnc(-c2ccc3nc(-c4cccnc4N)n(-c4ccc5c(c4)CC[C@@H]5n4ccnn4)c3n2)s1 [Compound 303]" group="Not satisfied"
compound="Cn1nc(C(=O)N[C@H]2CCc3cc(-n4c(-c5cccnc5N)nc5ccc(-n6cccn6)nc54)ccc32)cc1C(F)F [Compound 266]" group=Satisfied
compound="Nc1ncccc1-c1nc2ccc(-n3cccn3)nc2n1-c1ccc2c(c1)CC[C@@H]2NC(=O)CC1CCC(=O)N1 (stereo partly shown) [Compound 47]" group="Not satisfied"
compound="Cn1nc(C(=O)N[C@H]2CCc3cc(-n4c(-c5cccnc5N)nc5ccc(-n6cccn6)nc54)ccc32)cc1C#N [Compound 214]" group="Not satisfied"

Ref: patent US12624034B2
